Origin of measurements: PubChem BioAssay

experiment: HepG2 cytotoxicity, primary screen, cytotoxicity control for P. falciparum antimalarial project, cell-based, ATP luminescence (AID 2303); details: HepG2 viability, 24-48 h, at 10 µM, stronger effect = higher value;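 further: 0% = DMSO wells and 100% = digitonin-killed cells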
Activity calls are given as the source filed them.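 How the source made its calls: active means inhibition above 50%; inactive means the rest.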
Here the recorded inhibition is given for each entry.

Consider the worked cases shown below.
COMPOUND: CCNc1cc(C(=O)N[C@@H](Cc2ccccc2)[C@H](O)CNC2CCC(C)(C)CC2)cc(N2CCCCS2(=O)=O)c1
inhibition: 1% (inactive)
--
COMPOUND: O=C(NCc1cccc(C(F)(F)F)c1)C1CCCN(C(=O)c2ccc(O)c(-c3ccc(Cl)c(Cl)c3)c2)C1 (centres undefined)
inhibition: 1% (inactive)
--
COMPOUND: O=[N+]([O-])c1cccc(-c2nc(-c3ccc(Br)cc3)[nH]c2-c2ccc(Br)cc2)c1
inhibition: 6% (inactive)
--
COMPOUND: O=C(c1ccc(F)cc1)N1CCOC(CCN2CCC(c3ccccc3)CC2)(c2ccc(Cl)c(Cl)c2)C1 (centres undefined)
inhibition: 29% (inactive)
--
COMPOUND: Clc1ccccc1OCc1ccccn1
inhibition: 2% (inactive)

# input compound: "O=C(NCCCCN1CCC(O)(c2ccc(Cl)cc2)CC1)c1ccc(Br)cc1" ; wanted: its inhibition
41% (inactive)

Now the compound "O=C(N[C@@H](CC1CCCCC1)C(=O)NC1CCCCCC1)c1ccc(O)c(-c2ccc(Cl)c(Cl)c2)c1"
-3% (inactive)

Now the compound "CC[C@H](C)CNC(=O)c1cncc(-c2ccc(CNC3CCCC3)cc2)c1"
-25% (inactive)

Now the compound "Fc1cccc(COc2ccc(Nc3ncnc4sc(C#C[C@H]5CCCN5)cc34)cc2F)c1"
13% (inactive)
